Values were extracted from the supplement of paper PMC10567573.

B1: POMT2 (parent)
chain: VLRSRIRFIHLVTGCVLGSSGKVL

- Variants of: B1
- Protocol Notes: protein stability index of a GFP-peptide fusion (GPS, HEK-293T) (PSI 1-6); higher = more stable;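 further: lentivirally expressed fusions sorted by FACS into six bins by GFP to DsRed ratio, PSI derived from sequencing read proportions per bin multiplied by bin number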
- Test Context: c terminus: a fixed tail appended
Measurement Label: protein stability index
// keep it numeric: no unit symbol after the value

G14T = 2.33

QUERY: Query (variant): S19I ; field requested: protein stability index
RESULT: 2.59

QUERY: Can you check G14Y next?
RESULT: 3.68

QUERY: Can you check G14L next?
RESULT: 2.46

QUERY: Can you check L17G next?
RESULT: 3.47
